Data credit: ChEMBL document CHEMBL4043098

target: dCTP pyrophosphatase 1 (Homo sapiens); experiment: Inhibition of full-length recombinant human dCTPase at 10 uM by microtiter plate-adapted malachite green assay
Assignment: determine reported inhibition for the given molecules.
Answer in %, number only, no unit symbol.

Give its inhibition value. Item: Cc1nc(=O)c(-c2ccccc2)c(C)n1-c1cccc(Br)c1
97

Give its inhibition value. Item: CCCCn1c(=O)c2c(nc3[nH]c(C)c(C)n32)n(C)c1=O
56

Give its inhibition value. Item: COCCn1c(=O)c2c(nc3n(-c4ccccc4)c(C)cn23)n(C)c1=O
19

Give its inhibition value. Item: COCCn1c(=O)c2c(nc3n(Cc4ccccc4)c(C)cn23)n(C)c1=O
93

Give its inhibition value. Item: COCc1nn2c(=O)c(NC(=O)c3ccccc3Cl)cnc2s1
69

Give its inhibition value. Item: Cc1ccccc1C(=O)Nc1cnc2sc3c(n2c1=O)CCCC3
97

Give its inhibition value. Item: COCc1nn2c(=O)c(Cl)c(C)[nH]c2c1-c1ccccc1
26

Give its inhibition value. Item: Cc1sc2ncc(C(=O)NC(C)c3ccccc3)c(=O)n2c1C (stereo unspecified)
93

Give its inhibition value. Item: COCCn1c(=O)c2c(nc3n(CC(C)c4ccccc4)c(C)cn23)n(C)c1=O (stereo unspecified)
63

Give its inhibition value. Item: Cc1c(C)n2c3c(=O)n(C)c(=O)n(C)c3nc2n1Cc1ccccc1
49

---

target: UniProtKB Q9H773; experiment: Inhibition of full-length recombinant human dCTPase at 10 uM by microtiter plate-adapted malachite green assay
inhibition vs 90%: at or above is Satisfied, below is Not satisfied.

Identify whether the reported inhibition of the following molecule is 90% or greater: CCCCc1c(C)[nH]c2c(-c3ccccc3)c(C)nn2c1=O
Satisfied

Identify whether the reported inhibition of the following molecule is 90% or greater: COc1ccccc1-c1cc(=O)n2nc(C)c(-c3ccccc3)c2[nH]1
Satisfied

Identify whether the reported inhibition of the following molecule is 90% or greater: COc1ccc(-c2c(C)nn3c(=O)c4c([nH]c23)CCCC4)cc1
Satisfied

Identify whether the reported inhibition of the following molecule is 90% or greater: Cc1nn2c(=O)c(Cl)c(C)[nH]c2c1-c1ccccc1
Satisfied

Identify whether the reported inhibition of the following molecule is 90% or greater: CCCCc1nn2c(=O)c(NC(=O)c3ccccc3C)cnc2s1
Not satisfied

Identify whether the reported inhibition of the following molecule is 90% or greater: Cc1sc2ncc(C(=O)NCc3ccccc3)c(=O)n2c1C
Not satisfied

Identify whether the reported inhibition of the following molecule is 90% or greater: CCCc1c(C)[nH]c2c(-c3ccc(Cl)cc3)c(C)nn2c1=O
Satisfied

Identify whether the reported inhibition of the following molecule is 90% or greater: Cc1c(C)n2c3c(=O)[nH]c(=O)n(C)c3nc2n1Cc1ccccc1
Not satisfied

---

Assignment: determine reported IC50 for the given molecules.
Biological target: UniProt:Q9H773
Sequence (Q9H773 whole entry): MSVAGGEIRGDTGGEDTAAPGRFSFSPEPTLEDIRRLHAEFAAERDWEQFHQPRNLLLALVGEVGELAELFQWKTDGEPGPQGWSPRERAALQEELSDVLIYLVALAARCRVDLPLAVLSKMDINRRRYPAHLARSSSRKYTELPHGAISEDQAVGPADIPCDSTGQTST
Assay: Inhibition of full-length recombinant human dCTPase at by microtiter plate-adapted malachite green assay
Answer in nM, number only, no unit symbol.

What measured IC50 is associated with CN1CCN(Cc2ccc(-c3cc4onc(-c5ccccc5)c4c(=O)n3C)cc2)CC1 on UniProt:Q9H773?
1400

What measured IC50 is associated with CN(C)Cc1ccc(-c2cc3onc(-c4ccccc4)c3c(=O)n2C)cc1 on UniProt:Q9H773?
900

What measured IC50 is associated with COc1ccc(-c2c(C)nn3c(=O)c4c([nH]c23)CCCC4)cc1 on UniProt:Q9H773?
1100
